Catalogue of VNA IC50 readings, one per entry.
Molecular target: hemagglutinin (HA) of influenza A/New Caledonia/20/99 (H1N1) (influenza A virus A/New Caledonia/20/99 (H1N1))
Test: cell-based or functional assay
assayReadout: VNA IC50 (nM)

binder	assayReadout	relationQualifier	val
SD3017 (VHH) VHH: EVQLVESGGGVVQPGGSLRLSCAASISIFDIYAMHWYRQAPGKQRELVATSFRDGSTYYADSVKGRFTISRDNSKNTLYLQMNSLRAEDTAVYLCHVSLYRDPLGVAGGMGVYWGKGALVTVSS	VNA IC50	=	4
SD3032 (VHH) VHH: EVQLVESGGGLVQPGGSLRLSCAVSISIFDIYAMDWYRQAPGKQRDLVATSFRDGSTNYADSVKGRFTISRDNAKNTLYLQMNSLKPEDTAVYLCHVSLYRDPLGVAGGAGVYWGKGALVTVSS	VNA IC50	>	500
SD3015 (VHH) VHH: EVQLVESGGGVVQPGGSLRLSCAASISIFDIYAMDWYRQAPGKQRELVSVSFRDGSTYYADSVKGRFTISRDNSKNTLYLQMNSLRAEDTAVYLCHVSLYRDPLGVAGGMGVYWGKGALVTVSS	VNA IC50	=	3
SD3016 (VHH) VHH: EVQLVESGGGVVQPGGSLRLSCAASISIFDIYAMDWYRQAPGKQRELVAVSFRDGSTYYADSVKGRFTISRDNSKNTLYLQMNSLRPEDTAVYLCHVSLYRDPLGVAGGMGVYWGKGALVTVSS	VNA IC50	=	3
SD3089 (VHH) VHH: EVQLVESGGGVVQPGGSLRLSCAASISIFDIYAMHWYRQAPGKQRELVSVSFRDGSTYYADSVKGRFTISRDNSKNTLYLQMNSLRAEDTAVYYCHVSLYRDPLGVAGGLGVYWGQGTLVTVSS	VNA IC50	=	3
SD3080 (VHH) VHH: EVQLVESGGGVVQPGGSLRLSCAASISIFDIYAMDWYRQAPGKQRELVAVSFRDGSTYYADSVKGRFTISRDNSKNTLYLQMNSLRPEDTAVYYCHVSLYRDPLGVAGGLGVYWGQGTLVTVSS	VNA IC50	=	5
SD3029 (VHH) VHH: EVQLVESGGGLVQPGGSLRLSCAVSISIFDIYAMDWYRQAPGKQRDLVATSFRDGSTNYADSVKGRFTISRDNAKNTLYLQMNSLKPEDTAVYLCHVSLYRDPLGVAGGLGVYWGKGALVTVSS	VNA IC50	=	4
SD3013 (VHH) VHH: EVQLVESGGGVVQPGGSLRLSCAASISIFDIYAMDWYRQAPGKQRELVATSFRDGSTYYADSVKGRFTISRDNSKNTLYLQMNSLRAEDTAVYLCHVSLYRDPLGVAGGMGVYWGKGALVTVSS	VNA IC50	=	6
